Consider the following binders; for each one, report its EC50.
- SYSTEM_UNDER_TEST: human FGFR2b on KATO III cells (human, UniProt P21802)
- Sequence (P21802 22-377): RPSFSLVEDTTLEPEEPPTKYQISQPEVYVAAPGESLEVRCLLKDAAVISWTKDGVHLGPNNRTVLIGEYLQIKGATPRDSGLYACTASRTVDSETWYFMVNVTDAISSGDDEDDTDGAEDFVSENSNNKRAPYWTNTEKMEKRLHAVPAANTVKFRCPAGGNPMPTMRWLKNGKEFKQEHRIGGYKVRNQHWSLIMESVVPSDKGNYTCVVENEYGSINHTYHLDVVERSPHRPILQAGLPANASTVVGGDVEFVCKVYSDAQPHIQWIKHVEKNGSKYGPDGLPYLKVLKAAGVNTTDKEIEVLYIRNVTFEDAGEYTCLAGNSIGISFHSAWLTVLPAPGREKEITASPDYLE
- EXPERIMENT_NOTES: FACS
Remember to follow the number with its unit.

Input 3A3 (antibody, V domains shown) VH: QVQLQQSGAELVKPGASVKMSCKASGYTFTTYNIHWVRQTPGQGLEWIGLIYPDNGDTSYNQKFKAKATLTADKSSSTAYMHLSSLTSEDSAVYYCARGGFDYWGQGTTLTVSS VL: DIVMTQSHKFMSTSVGDRVSITCKASQDVNTDVSWYQQKPGQSPKLLIYSASYRYTGVPTRFTGSGSGTDFTFTISGVQAEDLADYYCQQHYNTPYTFGGGTRLEIK . Output EC50: 0.236 µg/mL

Recorded result, 3F11 (antibody, V domains shown) VH: QVQLQQSGAELVKPGASVKMSCKASGYTFAPYNIHWVRQTPGQGLEWIGLIYPDNGDTSYNQKFKAKATLTADKSSSTAYMQLSSLTSEDSAVYYCARGGFDYWGQGTSLTVSS VL: DIVMTQSQKFMSTSVGDRVSVTCKASQNVGTNVAWYQQKPGQSPKALIYSASYRYSGVPDRFTGSGSGTDFTLTISNVQSEDLAEYFCQQHYSTPFTFGSGTKLEIK , EC50: 0.164 µg/mL

EC50 recorded for this binder, 3H9 (antibody, V domains shown) VH: EIQLQQSGAELVKPGASVKMSCKASGYTFSFYNMHWVKRTPGQGLEWIGLIYPDNGDTSYNQKFKGKATLTADTSSSTAYMQLSSLTSEDSAVYYCARGGLDYWGQGTTLTVSS VL: DIVLTQSPASLSVSVGETVTITCRASENIYSNLAWYQQKQGKSPQLLVYAATNLADGVPSRFSGSGSGTQYSLKINSLQSEDFGSYYCQHFWGTPYTFGGGTKLELK , is 0.161 µg/mL
